This document collects IC50 values reported for human lung cancer strain NCI-H441.
The reply should contain only the number, in nM.

Task item: Quick one: IC50 of `CC[C@H](C)[C@@H]1NC(=O)[C@H](COC)N(C)C(=O)C[C@@H](C(=O)N(C)C)N(C)C(=O)[C@H](C2CCCC2)N(C)C(=O)C2(CC(C)(C)C2)NC(=O)[C@@H]2C[C@@H](OC3CCCC3)CN2C(=O)[C@H](CCc2cc(F)c(C(F)(F)F)c(F)c2)NC(=O)CN(C)C(=O)[C@H](Cc2ccc(C)cc2)N2CC/C=C\C[C@@H](C2=O)N(C)C(=O)CN(C2CC2)C1=O` ?
Reply: 33.4

Task item: What does the record list as IC50 for `CCO[C@@H]1C[C@H]2C(=O)NC3(CC(C)(C)C3)C(=O)N(C)[C@@H](CC(C)(C)C)C(=O)N(C)[C@H](C(=O)N(C)C)CC(=O)N(C)[C@@H](COC)C(=O)N[C@@H]([C@@H](C)CC)C(=O)N(C3CC3)CC(=O)N(C)[C@H]3C/C=C\CCN(C3=O)[C@@H](Cc3ccc(C(F)(F)F)cc3)C(=O)N(C)CC(=O)N[C@@H](CCc3cc(F)c(C(F)(F)F)c(F)c3)C(=O)N2C1` ?
Reply: 10.7

Task item: Which IC50 value belongs to `CCCOC[C@H]1C(=O)N[C@@H]([C@@H](C)CC)C(=O)N(C)CC(=O)N(C)[C@H]2C/C=C\CCN(C2=O)[C@@H](Cc2ccc(C(F)(F)F)cc2)C(=O)N(C)CC(=O)N[C@@H](CCc2cc(F)c(C(F)(F)F)c(F)c2)C(=O)N2C[C@H](OCC)C[C@H]2C(=O)NC2(CCCC2)C(=O)N(C)[C@@H](C2CCCC2)C(=O)N(C)[C@H](C(=O)N2CCCC2)CC(=O)N1C` ?
Reply: 18.8

---

Answer each item with its documented Kd.
subjectOfTest: GDP-bound KRAS wild-type protein (Homo sapiens, UniProt P01116)
Sequence (P01116 whole entry): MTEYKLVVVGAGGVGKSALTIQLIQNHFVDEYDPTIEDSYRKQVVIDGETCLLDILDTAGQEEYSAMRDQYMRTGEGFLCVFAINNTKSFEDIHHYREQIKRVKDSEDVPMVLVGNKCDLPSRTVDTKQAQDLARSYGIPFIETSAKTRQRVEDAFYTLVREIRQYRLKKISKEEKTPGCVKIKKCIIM
methodDescription: Binding to KRAS by surface plasmon resonance (SPR), Single Cycle Kinetics
recordedConditions: SPR Single Cycle Kinetics, GDP-bound KRAS wild-type protein, 1:1 binding model; read-out: KRAS KD
Where a SMILES comes first, the peptide text is derived from it. Bridges are numbered along the chain shown (N, C = ends). [ ]: non-standard residue; d: D form. The star is where a group is joined. hPhe(3-Cl-4-CF3) = N[C@@H](CCc1ccc(C(F)(F)F)c(Cl)c1)C(=O)O; NEtPhe(4-CF3) = CCN[C@@H](Cc1ccc(C(F)(F)F)cc1)C(=O)O; NMeGly(cPent) = CN[C@H](C(=O)O)C1CCCC1; NMeD = CN[C@@H](CC(=O)O)C(=O)O; NMeL = CN[C@@H](CC(C)C)C(=O)O; Morpholide = C1CN(*)CCO1; NMeA = CN[C@@H](C)C(=O)O; Ac5c = NC1(C(=O)O)CCCC1; Aze = O=C(O)[C@@H]1CCN1; Ac3c = NC1(C(=O)O)CC1; Sar = CNCC(=O)O
Record the value in nM, omitting the unit from your answer.

Task item: Recorded Kd for CC[C@H](C)[C@@H]1NC(=O)[C@H](CC(C)C)N(C)C(=O)C[C@@H](C(=O)N2CCOCC2)N(C)C(=O)[C@H](C2CCCC2)N(C)C(=O)C2(CC2)NC(=O)[C@@H]2CCCN2C(=O)[C@H](CCc2ccc(C(F)(F)F)c(Cl)c2)NC(=O)CN(C)C(=O)[C@H](Cc2ccc(C(F)(F)F)cc2)N(CC)C(=O)[C@@H]2CCN2C(=O)[C@H](C)N(C)C1=O [PP0220] ([NMeL]I[NMeA][Aze][NEtPhe(4-CF3)][Sar][hPhe(3-Cl-4-CF3)]P[Ac3c][NMeGly(cPent)][NMeD]-Morpholide; lactam N-11) with GDP-bound KRAS wild-type protein (Homo sapiens, UniProt P01116), please?
Reply: 0.35

Task item: // fetch GDP-bound KRAS wild-type protein (Homo sapiens, UniProt P01116) Kd for CC[C@H](C)[C@@H]1NC(=O)[C@H](CC(C)C)N(C)C(=O)C[C@@H](C(=O)N2CCOCC2)N(C)C(=O)[C@H](C2CCCC2)N(C)C(=O)C2(CCCC2)NC(=O)[C@@H]2CCCN2C(=O)[C@H](CCc2ccc(C(F)(F)F)c(Cl)c2)NC(=O)CN(C)C(=O)[C@H](Cc2ccc(C(F)(F)F)cc2)N(CC)C(=O)[C@@H]2CCN2C(=O)[C@H](C)N(C)C1=O [PP0002] ([NMeL]I[NMeA][Aze][NEtPhe(4-CF3)][Sar][hPhe(3-Cl-4-CF3)]P[Ac5c][NMeGly(cPent)][NMeD]-Morpholide; lactam N-11)
Reply: 0.18

Reference source for all entries: patent US20240158446A1
